Test: NCI Yeast Anticancer Drug Screen. Data for the mec2-1 strain (AID 157)
Conditions: S. cerevisiae mec2-1 strain, at 50.0 µM, active compounds read high
This is part of a sample that, as a whole, favours compounds with a hit. Of some 79,000 tested, about 15% had one in any assay. Active and inactive are the calls of the source. No stated cut-off is given here; in the data, active means growth inhibition above about 70%; inactive means the rest.
Consider the following compounds and their measured growth inhibition readings.

{"Compound": "COC(=O)C1C(=O)N(C)c2cc(C)c(C)cc2C1(C)C (stereo not given)", "growth inhibition": "-9.4% (inactive)"}
{"Compound": "CN(N=O)C(N)=NC(=O)c1ccccc1", "growth inhibition": "10% (inactive)"}
{"Compound": "C(=N\\N=C\\c1ccccc1)/c1ccccc1", "growth inhibition": "4.65% (inactive)"}
{"Compound": "Nc1ccccc1/C(O)=C1/CCOC1=O", "growth inhibition": "-23.6% (inactive)"}
{"Compound": "O=C(O)CN1CCSc2ccccc2CN(CC(=O)O)CCSc2ccccc2C1", "growth inhibition": "3.1% (inactive)"}
{"Compound": "CC(=O)C(OCCCl)OCCCl", "growth inhibition": "-7.65% (inactive)"}
{"Compound": "Cc1ccccc1OS(=O)(=O)c1ccc(Br)cc1", "growth inhibition": "13.8% (inactive)"}
{"Compound": "C#CCOC(=O)C(N)CC(N)=O (stereo not given)", "growth inhibition": "-21.9% (inactive)"}
{"Compound": "N#Cc1nc(/C=C/c2cccnc2)oc1N", "growth inhibition": "6.7% (inactive)"}
{"Compound": "COc1cc(/C=C/Cc2cc3c(cc2O)OCO3)cc(OC)c1OC", "growth inhibition": "-15.6% (inactive)"}
{"Compound": "COc1ccc(C2C3=C(COC3=O)Oc3cc4c(cc32)OCO4)cc1OC (stereo not given)", "growth inhibition": "-33% (inactive)"}
{"Compound": "CCOc1ccnc2c(OC)c(C)c3nc4ccccc4nc3c12", "growth inhibition": "-13.2% (inactive)"}
{"Compound": "Cc1ccc(S(=O)(=O)OC2CCC(C(C)(C)C)C(Cl)C2)cc1 (stereo not given)", "growth inhibition": "8.3% (inactive)"}
{"Compound": "COc1cc(O)c2c(c1)C(=O)c1cc(C)cc(O)c1C2=O", "growth inhibition": "-22.9% (inactive)"}
{"Compound": "CN(C)C1=NS(=O)(=O)N=C(N(C)c2ccccc2)O1", "growth inhibition": "6.65% (inactive)"}
{"Compound": "CCCCCCCCCCCCCCCCSc1ccc(Br)cc1", "growth inhibition": "7% (inactive)"}
{"Compound": "CO[C@H]1C[C@H]2CC[C@@]1(C)C2(C)C", "growth inhibition": "12.6% (inactive)"}
{"Compound": "CCN(CC)C(=O)CCn1ccc(=O)[nH]c1=O", "growth inhibition": "-33.4% (inactive)"}
{"Compound": "C=CCOC(=O)Oc1ccc(Cl)cc1Cl", "growth inhibition": "0.3% (inactive)"}
{"Compound": "FC(F)(F)c1ccc(Cl)c(N=C=S)c1", "growth inhibition": "-9.15% (inactive)"}
{"Compound": "CO/C(=N\\N=C\\c1cccc(Cl)c1)c1ccncc1", "growth inhibition": "-9.6% (inactive)"}
{"Compound": "O=C(c1ccc(OC(=O)c2ccccc2O)cc1)c1ccc(OC(=O)c2ccccc2O)cc1", "growth inhibition": "6.75% (inactive)"}
{"Compound": "NC(=O)c1nnn(Cc2ccccc2)c1C(N)=O", "growth inhibition": "-11.4% (inactive)"}
{"Compound": "COc1ccc2cc(OC)ccc2c1", "growth inhibition": "-14.6% (inactive)"}
{"Compound": "COC(=O)CC1(C(=O)OC)OC(=O)c2ccccc2N1C (stereo not given)", "growth inhibition": "12% (inactive)"}
{"Compound": "CC(=O)NC(Cc1cc(I)c(OC(C)=O)c(I)c1)C(=O)O (stereo not given)", "growth inhibition": "-16.8% (inactive)"}
{"Compound": "CCCCCCCCCCCCCCCCCCCCCCBr", "growth inhibition": "4.8% (inactive)"}
{"Compound": "CCOC(=O)OC1CCCCC1c1ccccc1 (stereo not given)", "growth inhibition": "-12.9% (inactive)"}
{"Compound": "Nc1ccc(C2NC(=O)Cc3c2ccc2ccccc32)cc1 (stereo not given)", "growth inhibition": "9.7% (inactive)"}
{"Compound": "CCN(CC)CC(OC(C)=O)c1ccc2ccc3ccc(O)cc3c2c1 (stereo not given)", "growth inhibition": "7.85% (inactive)"}
{"Compound": "COc1c(NC(=O)CC(C)=O)cccc1NC(=O)CC(C)=O", "growth inhibition": "14.4% (inactive)"}
{"Compound": "CC1CCC2C(C)C3C(CC4C5CC=C6CC(O)CCC6(C)C5CCC43C=O)N2C1 (stereo not given)", "growth inhibition": "19.9% (inactive)"}
{"Compound": "CCCc1cc(-c2ccc(-c3cc(CCC)c(C=O)[nH]3)s2)[nH]c1C=O", "growth inhibition": "-19.6% (inactive)"}
{"Compound": "CS(=O)(=O)CC(O)c1ccccc1 (stereo not given)", "growth inhibition": "-3.2% (inactive)"}
{"Compound": "CN(C)c1ccc(NC2COc3ccccc3C2=O)cc1 (stereo not given)", "growth inhibition": "3.9% (inactive)"}
{"Compound": "O=c1[nH]cnc2oc(-c3ccccc3)nc12", "growth inhibition": "-0.7% (inactive)"}
{"Compound": "COc1nn(C)c(=O)c2cccnc12", "growth inhibition": "7.6% (inactive)"}
{"Compound": "O=C(C[n+]1cccc(Br)c1)c1ccc(F)cc1", "growth inhibition": "19.9% (inactive)"}
{"Compound": "C[C@H]1CC[C@@]2(OC1)O[C@H]1C[C@H]3[C@@H]4CC[C@@H]5C[C@@H](OC6OC(CO)C(O)C(O)C6OC6OC(CO)C(O)C(O)C6O)CC[C@]5(C)[C@H]4CC[C@]3(C)[C@H]1[C@@H]2C (stereo not given in full)", "growth inhibition": "68.4% (inactive)"}
{"Compound": "CSc1n[nH]c(NC(=O)c2ccccc2Br)n1", "growth inhibition": "-0.9% (inactive)"}
{"Compound": "CC1(C)C(c2ccccc2)=NN(O)c2ccccc21", "growth inhibition": "-15.8% (inactive)"}
{"Compound": "Cc1cc(=O)n2ccnc2[nH]1", "growth inhibition": "11.3% (inactive)"}
{"Compound": "OCC1(c2ccccc2)CCNCC1", "growth inhibition": "-4.9% (inactive)"}
{"Compound": "CC1=C(C(=O)NCc2ccccc2)C(c2cccc([N+](=O)[O-])c2)C(C(=O)NCc2ccccc2)=C(C)N1", "growth inhibition": "17.2% (inactive)"}
{"Compound": "CC(=Nc1cccc(C(F)(F)F)c1)c1c(O)cc(C)oc1=O", "growth inhibition": "14.8% (inactive)"}
{"Compound": "COc1ccc(C2CC(C)(O)Oc3cc4c(cc32)OCO4)cc1 (stereo not given)", "growth inhibition": "26.3% (inactive)"}
{"Compound": "O=C1CC2(CCN(Cc3ccccc3)CC2)C(=O)N1N1CCCCC1", "growth inhibition": "33.3% (inactive)"}
{"Compound": "CCOC(=O)c1nc(-c2ccccc2)c(-c2ccccc2)c(-c2ccccc2)c1C", "growth inhibition": "-2.55% (inactive)"}
{"Compound": "COc1ccccc1OC(C)=O", "growth inhibition": "-14.4% (inactive)"}
{"Compound": "O=[N+]([O-])c1c(O)c2nonc2c2nn(-c3ccccc3)nc12", "growth inhibition": "15% (inactive)"}
